Biological target: recombinant human Casp3 (Homo sapiens)
Sequence (P42574 29-175 limits assumed): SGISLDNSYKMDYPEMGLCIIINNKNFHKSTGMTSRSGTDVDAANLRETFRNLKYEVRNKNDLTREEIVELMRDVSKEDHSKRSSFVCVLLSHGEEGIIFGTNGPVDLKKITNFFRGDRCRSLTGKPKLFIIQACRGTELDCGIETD
Sequence (P42574 176-277 limits assumed): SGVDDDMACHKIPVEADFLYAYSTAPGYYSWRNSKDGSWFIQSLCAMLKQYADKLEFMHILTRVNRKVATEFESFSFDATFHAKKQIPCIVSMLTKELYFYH
Experiment: Enzyme mechanistic studies (Ki, k3, k3/KI), Caspase-3
Assay type: biochemical
Settings: irreversible inhibitors, progress curve method
This listing pairs compounds with measured Casp3 k3/KI.
observed.property: Casp3 k3/KI (M⁻¹ s⁻¹)

compound | numeric.readout
CC(C)[C@H](NC(=O)c1ccc2ccccc2n1)C(=O)N[C@@H](CC(=O)O)C(=O)N[C@H](C(=O)N1CC[C@H](CC(C)(C)C)[C@@H]1C(=O)NC(CC(=O)O)C(=O)COc1c(F)cccc1F)C(C)C (stereo partly shown) | 1807
CC(C)[C@H](NC(=O)c1ccc2ccccc2n1)C(=O)N[C@@H](CC(=O)O)C(=O)N[C@H](C(=O)N1CC[C@H](CC(C)(C)C)[C@H]1C(=O)NC(CC(=O)O)C(=O)COc1c(F)cccc1F)C(C)C (stereo partly shown) | 9

---

This listing pairs compounds with measured Casp2 k3.
Biological target: recombinant human Casp2 (Homo sapiens, UniProt P42575)
Sequence (P42575 170-325 limits assumed): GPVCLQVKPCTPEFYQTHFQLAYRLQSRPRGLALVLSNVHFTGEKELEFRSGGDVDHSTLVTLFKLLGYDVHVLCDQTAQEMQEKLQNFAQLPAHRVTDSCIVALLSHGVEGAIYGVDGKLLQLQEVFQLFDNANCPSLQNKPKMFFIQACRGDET
Sequence (P42575 348-452 limits assumed): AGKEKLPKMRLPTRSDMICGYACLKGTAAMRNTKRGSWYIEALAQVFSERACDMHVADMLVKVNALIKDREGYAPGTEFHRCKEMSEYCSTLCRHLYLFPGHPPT
Assay: Enzyme mechanistic studies (Ki, k3, k3/KI), Caspase-2
Type: biochemical
Conditions: irreversible inhibitors, progress curve method
Non-standard residues stand in square brackets, D forms with d. Residues, ends and D or L forms follow the SMILES beside them. ξ: configuration not given here. *: point of attachment. ξTHIQ1CO(6-Me) = Cc1ccc2c(c1)CCNC2C(=O)O; X1 = O=C(O)CC(N*)C(=O)COc1c(F)cccc1F; Quinaldoyl = O=C(c1ccc2ccccc2n1)*
observed.property: Casp2 k3

compound | assayed.target | observed.property | result
COC(=O)CC(NC(=O)[C@H](C)NC(=O)C(NC(=O)[C@H](CC(=O)OC)NC(=O)[C@@H](NC(=O)c1ccc2ccccc2n1)C(C)C)C(C)C)C(=O)COc1c(F)cccc1F (stereo in doubt) [TRP601, reference compound] | recombinant human Casp2 (Homo sapiens, UniProt P42575) | Casp2 k3 | 5,56 ms^−1
CC(C)[C@H](NC(=O)c1ccc2ccccc2n1)C(=O)N[C@@H](CC(=O)O)C(=O)N[C@H](C(=O)N1CC[C@H](CC(C)(C)C)[C@@H]1C(=O)NC(CC(=O)O)C(=O)COc1c(F)cccc1F)C(C)C (stereo partly shown) | recombinant human Casp2 (Homo sapiens, UniProt P42575) | Casp2 k3 | 5 ± 7 × 10^−4 ms^−1
Cc1ccc2c(c1)CCN(C(=O)[C@@H](NC(=O)[C@H](CC(=O)O)NC(=O)[C@@H](NC(=O)c1ccc3ccccc3n1)C(C)C)C(C)C)C2C(=O)NC(CC(=O)O)C(=O)COc1c(F)cccc1F (stereo partly shown) [LJ2] (Quinaldoyl-VDV[ξTHIQ1CO(6-Me)]-X1) | recombinant human Casp2 (Homo sapiens, UniProt P42575) | Casp2 k3 | 4,91 ms^−1
CC(C)[C@H](NC(=O)c1ccc2ccccc2n1)C(=O)N[C@@H](CC(=O)O)C(=O)N[C@H](C(=O)N[C@@H](C)C(=O)NC(CC(=O)O)C(=O)COc1c(F)cccc1F)C(C)C (stereo partly shown) [Δ2Me-TRP601, Quinolin-2-carbonyl-VDVAD-CH2-O(2,6F2)Ph, reference compound] (Quinaldoyl-VDVA-X1) | recombinant human Casp2 (Homo sapiens, UniProt P42575) | Casp2 k3 | 8,08 ms^−1

---

Biological target: recombinant human Casp3 (Homo sapiens)
Assay: Enzyme mechanistic studies (Ki, k3, k3/KI), Caspase-3
Type: biochemical
Details: irreversible inhibitors, progress curve method
Non-standard residues stand in square brackets, D forms with d. Residues, ends and D or L forms follow the SMILES beside them. ξ: configuration not given here. *: point of attachment. ξTHIQ1CO(6-Me) = Cc1ccc2c(c1)CCNC2C(=O)O; X1 = O=C(O)CC(N*)C(=O)COc1c(F)cccc1F; Quinaldoyl = O=C(c1ccc2ccccc2n1)*
This listing pairs compounds with measured Casp3 k3.
observed.property: Casp3 k3

compound | result
CC(C)[C@H](NC(=O)c1ccc2ccccc2n1)C(=O)N[C@@H](CC(=O)O)C(=O)N[C@H](C(=O)N1CC[C@H](CC(C)(C)C)[C@@H]1C(=O)NC(CC(=O)O)C(=O)COc1c(F)cccc1F)C(C)C (some centres unmarked) | 0.7 ± 9 × 10^−5 ms^−1
Cc1ccc2c(c1)CCN(C(=O)[C@@H](NC(=O)[C@H](CC(=O)O)NC(=O)[C@@H](NC(=O)c1ccc3ccccc3n1)C(C)C)C(C)C)C2C(=O)NC(CC(=O)O)C(=O)COc1c(F)cccc1F (some centres unmarked) [LJ2] (Quinaldoyl-VDV[ξTHIQ1CO(6-Me)]-X1) | 2,37 ms^−1
CC(C)[C@H](NC(=O)c1ccc2ccccc2n1)C(=O)N[C@@H](CC(=O)O)C(=O)N[C@H](C(=O)N[C@@H](C)C(=O)NC(CC(=O)O)C(=O)COc1c(F)cccc1F)C(C)C (some centres unmarked) [Δ2Me-TRP601, Quinolin-2-carbonyl-VDVAD-CH2-O(2,6F2)Ph, reference compound] (Quinaldoyl-VDVA-X1) | 1,85 ms^−1
CC(C)[C@H](NC(=O)c1ccc2ccccc2n1)C(=O)N[C@@H](CC(=O)O)C(=O)N[C@H](C(=O)N1CC[C@H](CC(C)(C)C)[C@H]1C(=O)NC(CC(=O)O)C(=O)COc1c(F)cccc1F)C(C)C (some centres unmarked) | 0.8 ± 6 × 10^−5 ms^−1
COC(=O)CC(NC(=O)[C@H](C)NC(=O)C(NC(=O)[C@H](CC(=O)OC)NC(=O)[C@@H](NC(=O)c1ccc2ccccc2n1)C(C)C)C(C)C)C(=O)COc1c(F)cccc1F (stereo in doubt) [TRP601, reference compound] | 4,24 ms^−1
